system: 855422-203-R-J1-PDC spheroids with HUVEC/MSC, viability; experiment: Anticancer human tumor 855422-203-R-J1-PDC patient-derived bladder carcinoma cell line growth inhibition [PI3K]; conditions: second compound 0.316 µM; first compound 1 µM; hits give low values
Could you please mark class 1 for values of viability, T/C below 50% and class 0 for values at or above it?

compound	targetEntity	label
C[C@@H](NC(=O)c1ncnc(N)c1Cl)c1ncc(C(=O)Nc2cc(C(F)(F)F)c(Cl)cn2)s1 + COc1c(OCCCN2CCOCC2)ccc2c3n(c(=NC(=O)c4cnc(N)nc4)nc12)CCN3	855422-203-R-J1-PDC spheroids with HUVEC/MSC, viability	class 1
C#Cc1c(F)ccc2cc(O)cc(-c3ncc4c(N5CC6CCC(C5)N6)nc(OCC56CCCN5CC(F)C6)nc4c3F)c12 (stereo unspecified) + COc1c(OCCCN2CCOCC2)ccc2c3n(c(=NC(=O)c4cnc(N)nc4)nc12)CCN3	855422-203-R-J1-PDC spheroids with HUVEC/MSC, viability	class 1
CC1(C)CCC(Nc2ncc(C(F)(F)F)c(-c3c[nH]c4c(P(C)(C)=O)c(C#N)ccc34)n2)CN1 (stereo unspecified) + COc1c(OCCCN2CCOCC2)ccc2c3n(c(=NC(=O)c4cnc(N)nc4)nc12)CCN3	855422-203-R-J1-PDC spheroids with HUVEC/MSC, viability	class 1
C[C@@H](NC(=O)c1ncnc(N)c1Cl)c1ncc(C(=O)Nc2cc(C(F)(F)F)c(Cl)cn2)s1 + CC(Nc1ccc2c(c1)OCCn1cc(N3C(=O)OCC3C(F)F)nc1-2)C(N)=O	855422-203-R-J1-PDC spheroids with HUVEC/MSC, viability	class 0
C=CC(=O)N1CCN(c2nc(=O)n(-c3c(C)ccnc3C(C)C)c3nc(-c4c(O)cccc4F)c(F)cc23)C(C)C1 (stereo unspecified) + Cc1nc(NC(=O)N2CCCC2C(N)=O)sc1-c1ccnc(C(C)(C)C(F)(F)F)c1	855422-203-R-J1-PDC spheroids with HUVEC/MSC, viability	class 0
C=CC(=O)N1CCN(c2nc(=O)n(-c3c(C)ccnc3C(C)C)c3nc(-c4c(O)cccc4F)c(F)cc23)C(C)C1 (stereo unspecified) + CC(Nc1ccc2c(c1)OCCn1cc(N3C(=O)OCC3C(F)F)nc1-2)C(N)=O	855422-203-R-J1-PDC spheroids with HUVEC/MSC, viability	class 0

###

tested on: 855422-203-R-J1-PDC spheroids with HUVEC/MSC, viability; assay: Anticancer human tumor 855422-203-R-J1-PDC cell line growth inhibition [PI3K]; conditions: second compound 0.1 µM; first compound 0.1 µM; hits give low values;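 note: agents incubated with spheroids for one week before read-out; 100% = DMSO vehicle-treated control wells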
Could you please mark fulfilled for values of viability, T/C below 40% and not fulfilled for values at or above it?

molecule	label
CC1(C)CCC(Nc2ncc(C(F)(F)F)c(-c3c[nH]c4c(P(C)(C)=O)c(C#N)ccc34)n2)CN1 (stereo not given) + CC(Nc1ncnc2nc[nH]c12)c1cc2cccc(Cl)c2c(=O)n1-c1ccccc1	fulfilled
CC1(C)CCC(CN2CCN(c3ccc(C(=O)NS(=O)(=O)c4ccc(NCC5CCOCC5)c([N+](=O)[O-])c4)c(Oc4cnc5[nH]ccc5c4)c3)CC2)=C(c2ccc(Cl)cc2)C1 + COc1c(OCCCN2CCOCC2)ccc2c3n(c(=NC(=O)c4cnc(N)nc4)nc12)CCN3	fulfilled
CNC(=O)c1ccc(N2C(=S)N(c3ccc(C#N)c(C(F)(F)F)c3)C(=O)C2(C)C)cc1F + CC(Nc1ccc2c(c1)OCCn1cc(N3C(=O)OCC3C(F)F)nc1-2)C(N)=O	not fulfilled
CCCS(=O)(=O)Nc1ccc(F)c(C(=O)c2c[nH]c3ncc(-c4ccc(Cl)cc4)cc23)c1F + COc1c(OCCCN2CCOCC2)ccc2c3n(c(=NC(=O)c4cnc(N)nc4)nc12)CCN3	fulfilled
C=CC(=O)N1CCN(c2nc(=O)n(-c3c(C)ccnc3C(C)C)c3nc(-c4c(O)cccc4F)c(F)cc23)C(C)C1 (stereo not given) + CC(Nc1ccc2c(c1)OCCn1cc(N3C(=O)OCC3C(F)F)nc1-2)C(N)=O	not fulfilled
